B1: tRNA (parent)
chain: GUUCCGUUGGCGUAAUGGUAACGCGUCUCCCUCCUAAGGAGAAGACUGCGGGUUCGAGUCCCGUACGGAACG

Variants of: B1
Assay: yeast fitness relative to wild type (ratio to wild type); higher = fitter; tRNA-Arg(CCU), competitive growth, 37 C, YPD
This sample holds only a part of the variants without activity.
quantity: yeast fitness
# print the numeric value only

What the record says about U19G A65U : yeast fitness is 0.99

What the record says about C22A U26A C66U : yeast fitness is 0.582

What the record says about A21G A45C C49U C55U : yeast fitness is 0.531

What the record says about C4U U16A A40C C55U C61A C66A : yeast fitness is 0.528

What the record says about G6C A37C G51A G52A U53C C62A : yeast fitness is 0.561

What the record says about C11U A45U A65U : yeast fitness is 0.82

What the record says about U2C U3C : yeast fitness is 0.885

What the record says about C5A C24G A69U : yeast fitness is 0.578

What the record says about G12A A14G A21G C24G U28G : yeast fitness is 0.674

What the record says about C11A A15C C24A C27A G41C : yeast fitness is 0.583

What the record says about A20C G39C G41A : yeast fitness is 0.652

What the record says about U2G C60A C66G : yeast fitness is 0.989

What the record says about C5G G10C A69C : yeast fitness is 0.556

What the record says about G12C A20C C31G A65G : yeast fitness is 0.527

What the record says about U7A A40C C60A : yeast fitness is 0.543

What the record says about G23C A36G : yeast fitness is 0.625

What the record says about A20U C29A : yeast fitness is 0.797

What the record says about C60U C61G : yeast fitness is 0.643

What the record says about G67A G68C : yeast fitness is 0.819

What the record says about G6C G50C C62G C66U : yeast fitness is 0.673
